Recorded values, source paper PMC7377239.

Readings of minimal effective concentration for the listed compounds
system: iCell endothelial cells (human iPSC-derived ECs); experiment: High-content imaging cytotoxicity in iCell endothelial cells, 24 h; assay type: cell-based; conditions: Homo sapiens, Endothelial cell, endothelial cells (endo), tc, 24 hr, read-out: POD endo.tc.24hr
Please reply with the bare figure in µM and do not write the unit itself.

Field: example entries. Status: answers known.
{"compound": "Clc1ccc(-c2ccccc2)cc1 [PCB 3, 4-chlorobiphenyl]", "assayTarget": "iCell endothelial cells (human iPSC-derived ECs)", "unitText": "µM", "reportedMeasurement": 100}
{"compound": "O=C1C=CC(=O)C(c2ccc(Cl)cc2)=C1 [4-Cl-BQ, 2-(4-Chlorophenyl)benzo-2,5-quinone]", "assayTarget": "iCell endothelial cells (human iPSC-derived ECs)", "unitText": "µM", "reportedMeasurement": 2.56}
{"compound": "Oc1ccc(-c2ccc(Cl)cc2)cc1 [4'-OH-PCB 3]", "assayTarget": "iCell endothelial cells (human iPSC-derived ECs)", "unitText": "µM", "reportedMeasurement": 52}
{"compound": "Clc1cccc(-c2cccc(Cl)c2)c1 [PCB 11, 3,3′-Dichlorobiphenyl]", "assayTarget": "iCell endothelial cells (human iPSC-derived ECs)", "unitText": "µM", "reportedMeasurement": 100}
{"compound": "Oc1cc(Cl)cc(-c2cccc(Cl)c2)c1 [5-OH-PCB 11]", "assayTarget": "iCell endothelial cells (human iPSC-derived ECs)", "unitText": "µM", "reportedMeasurement": 43.2}

Consider now this further compound.
minimal effective concentration reading for Oc1cccc(-c2ccc(Cl)cc2)c1 [3'-OH-PCB 3] : 53.2
